- ASSAY_TARGET: human GVIA iPLA2 (Homo sapiens, UniProt O60733)
- Sequence (O60733 whole entry): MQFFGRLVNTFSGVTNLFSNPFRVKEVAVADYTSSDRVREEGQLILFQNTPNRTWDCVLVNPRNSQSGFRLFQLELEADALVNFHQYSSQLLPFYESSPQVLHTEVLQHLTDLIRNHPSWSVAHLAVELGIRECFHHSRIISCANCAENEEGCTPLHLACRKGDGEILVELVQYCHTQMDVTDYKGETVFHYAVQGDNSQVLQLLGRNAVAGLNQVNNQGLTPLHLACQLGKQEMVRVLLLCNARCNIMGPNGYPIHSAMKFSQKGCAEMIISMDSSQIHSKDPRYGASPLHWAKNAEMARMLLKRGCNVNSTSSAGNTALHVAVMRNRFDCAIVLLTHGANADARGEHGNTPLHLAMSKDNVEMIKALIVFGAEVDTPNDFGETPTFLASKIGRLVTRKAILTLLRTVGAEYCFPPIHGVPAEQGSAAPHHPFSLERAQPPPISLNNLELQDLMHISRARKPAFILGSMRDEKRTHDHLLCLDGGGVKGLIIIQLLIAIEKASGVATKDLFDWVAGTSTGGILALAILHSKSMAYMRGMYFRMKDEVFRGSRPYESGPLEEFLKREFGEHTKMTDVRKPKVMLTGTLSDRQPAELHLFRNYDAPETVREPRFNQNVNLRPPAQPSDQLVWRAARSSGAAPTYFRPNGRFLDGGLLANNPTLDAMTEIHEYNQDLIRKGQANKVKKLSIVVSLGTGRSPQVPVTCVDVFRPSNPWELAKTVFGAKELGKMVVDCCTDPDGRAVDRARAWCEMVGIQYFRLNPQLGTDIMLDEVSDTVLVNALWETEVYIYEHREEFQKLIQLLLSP
- ASSAY_NOTES: mixed micelle-based modified Dole assay, GVIA iPLA2 inhibition
- Assay type: biochemical
- STUDY_CONDITIONS: mole fraction of inhibitor in total substrate interface giving 50% inhibition
OBSERVED_PROPERTY: GVIA iPLA2 XI(50) (mole fraction)
Provide the reading as a plain figure in mole fraction.

The molecule listed as CCCCCCCCCCCCCCC(F)C(=O)C(F)(F)F (stereo not shown) [compound 26, 1,1,1,3-Tetrafluoro-heptadecan-2-one] shows GVIA iPLA2 XI(50) equal to 0.0011

The molecule listed as O=C(CCCCCCc1ccccc1)C(F)(F)C(F)(F)F [10c] shows GVIA iPLA2 XI(50) equal to 0.0065

The molecule listed as O=C(CCCCCc1ccccc1)C(F)(F)C(F)(F)F [10b] shows GVIA iPLA2 XI(50) equal to 0.0065

The molecule listed as CCCCCCOc1ccc(CCC(=O)C(F)(F)F)cc1 [19a] shows GVIA iPLA2 XI(50) equal to 0.0328
